# System: HT-29
# RUN_DESCRIPTION: Inhibitory concentration value against human colon adenocarcinoma HT-29 tumor cell line
# Assay type: functional, cell-based
METRIC: IC50

SMILES_STRING | TARGET_OR_SYSTEM | TEST_VALUE
COc1ccc(/C=C/c2ccc3ccccc3c2)cc1 | HT-29 | > 5 µM
COc1cc(/C=C/c2ccc(N(C)C)c([N+](=O)[O-])c2)cc(OC)c1OC | HT-29 | > 5 µM
COc1c([N+](=O)[O-])cc(/C=C\c2ccc3ccccc3c2)cc1[N+](=O)[O-] | HT-29 | > 5 µM
C(=C/c1cccc2ccccc12)/c1ccc2ccccc2c1 | HT-29 | 3.57 µM
COc1ccc(/C=C/c2ccc3ccccc3c2)cc1[N+](=O)[O-] | HT-29 | > 5 µM

Kindly note the recorded IC50 for Cc1ccc(/C=C\c2ccc3ccccc3c2)cc1 , which is > 5 µM

Kindly note the recorded IC50 for COc1cc(/C=C\c2cn(C)c3ccccc23)cc(OC)c1OC , which is 3.09 µM

Kindly note the recorded IC50 for COc1cc(/C=C/c2c[nH]c3ccccc23)cc(OC)c1OC , which is 3.23 µM

Kindly note the recorded IC50 for Cn1ccc2cc(/C=C/c3ccc4ccccc4c3)ccc21 , which is > 5 µM

Kindly note the recorded IC50 for COc1ccc(/C=C/c2ccc3ccccc3c2)cc1N , which is > 5 µM

Kindly note the recorded IC50 for FC(F)(F)Oc1ccc(/C=C/c2ccc3ccccc3c2)cc1 , which is > 5 µM

Kindly note the recorded IC50 for CN(C)c1c([N+](=O)[O-])cc(/C=C\c2ccc3ccccc3c2)cc1[N+](=O)[O-] , which is 2.75 µM

Kindly note the recorded IC50 for COc1ccc(/C=C\c2ccc3ccccc3c2)cc1N , which is 1.82 µM

Kindly note the recorded IC50 for COc1cc(/C=C/c2ccc3c(ccn3S(=O)(=O)c3ccccc3)c2)cc(OC)c1OC , which is > 5 µM

Kindly note the recorded IC50 for Cn1c2ccccc2c2cc(/C=C/c3ccc4ccccc4c3)ccc21 , which is > 5 µM
